test: Selectivity index, ratio of LD50 for human HepG2 cells to IC50 for Leishmania infantum MHOM/BR/70/BH46 promastigotes infected in dog DH82 cells; assay type: toxicity, cell-based; details: read-out: Ratio LD50/IC50
Decide by selectivity ratio: equal to or exceeding 5 means True, less means False.

Consider the worked cases shown below.
[[record]]
compound = "CC1(C)CC[C@]2(C(=O)OCc3cn(Cc4cccc(Br)c4)nn3)CC[C@]3(C)C(=CC[C@@H]4[C@@]5(C)CC[C@H](O)[C@@](C)(CO)[C@@H]5CC[C@]43C)[C@@H]2C1"
qualitative_label = "False"

[[record]]
compound = "CC1(C)CC[C@]2(C(=O)OCc3cn(Cc4ccc(F)cc4F)nn3)CC[C@]3(C)C(=CC[C@@H]4[C@@]5(C)CC[C@H](O)[C@@](C)(CO)[C@@H]5CC[C@]43C)[C@@H]2C1"
qualitative_label = "True"

[[record]]
compound = "CC1(C)CC[C@]2(C(=O)O)CC[C@]3(C)C(=CC[C@@H]4[C@@]5(C)CC[C@H](O)[C@@](C)(CO)[C@@H]5CC[C@]43C)[C@@H]2C1 [HEDERAGENIN]"
qualitative_label = "True"

[[record]]
compound = "CC1(C)CC[C@]2(C(=O)NCc3cn(Cc4ccc(Cl)cc4)nn3)CC[C@]3(C)C(=CC[C@@H]4[C@@]5(C)CC[C@H](O)[C@@](C)(CO)[C@@H]5CC[C@]43C)[C@@H]2C1"
qualitative_label = "False"

[[record]]
compound = "CC1(C)CC[C@]2(C(=O)OCc3ccc(Br)cc3)CC[C@]3(C)C(=CC[C@@H]4[C@@]5(C)CC[C@H](O)[C@@](C)(CO)[C@@H]5CC[C@]43C)[C@@H]2C1"
qualitative_label = "True"


# input Is it the case that `CC1(C)CC[C@]2(C(=O)NCc3cn(Cc4ccccc4[N+](=O)[O-])nn3)CC[C@]3(C)C(=CC[C@@H]4[C@@]5(C)CC[C@H](O)[C@@](C)(CO)[C@@H]5CC[C@]43C)[C@@H]2C1` has selectivity ratio reaching or exceeding 5?
# output True

# input Is it the case that `COC(=O)CNC(=O)[C@]12CCC(C)(C)C[C@H]1C1=CC[C@@H]3[C@@]4(C)CC[C@H](O)[C@@](C)(CO)[C@@H]4CC[C@@]3(C)[C@]1(C)CC2` has selectivity ratio reaching or exceeding 5?
# output False

# input Is it the case that `CC1(C)CC[C@]2(C(=O)OCc3cccc([N+](=O)[O-])c3)CC[C@]3(C)C(=CC[C@@H]4[C@@]5(C)CC[C@H](O)[C@@](C)(CO)[C@@H]5CC[C@]43C)[C@@H]2C1` has selectivity ratio reaching or exceeding 5?
# output True
